Measured Plant response rating, Lambsquarters values are reported for all entries that follow.
- System: lambsquarters (Chenopodium album)
- METHOD_DESCRIPTION: Test C greenhouse herbicide test, pre- and postemergence
- Type: in vivo
- MEASUREMENT_CONTEXT: Postemergence, 125 g ai/ha; scale 0 to 100, 0 is no effect, 100 is complete control
// print number alone

{"columns": ["COMPOUND", "Plant response rating, Lambsquarters"],
 "data": [
  ["Cc1nn(C)c(=O)c(-c2cccc3ccc(Br)cc23)c1O [Compound 126]", 95],
  ["Cc1cc2ccccc2c(-c2c(O)c(C)nn(C)c2=O)c1C [Compound 34]", 95],
  ["Cc1ccc2sc(Br)c(-c3c(O)c(C)nn(C)c3=O)c2c1 [Compound 79]", 98],
  ["Cc1ccc2ccccc2c1-c1c(O)c(C(F)(F)F)nn(C)c1=O [Compound 102]", 70]
]}

Shift focus to the following entry.
input: Requested read-out: Plant response rating, Lambsquarters. Entry: Cc1ccc2ccccc2c1-c1c(O)c(Br)nn(C)c1=O [Compound 23]
output: 95
